SYSTEM UNDER TEST: CDK4/cyclin D3 (Homo sapiens, UniProt P11802)
Construct: purchased Carna Biosciences, Inc. QS S Assist CDK4/Cyclin D3_FP Kit
Sequence (P11802 whole entry): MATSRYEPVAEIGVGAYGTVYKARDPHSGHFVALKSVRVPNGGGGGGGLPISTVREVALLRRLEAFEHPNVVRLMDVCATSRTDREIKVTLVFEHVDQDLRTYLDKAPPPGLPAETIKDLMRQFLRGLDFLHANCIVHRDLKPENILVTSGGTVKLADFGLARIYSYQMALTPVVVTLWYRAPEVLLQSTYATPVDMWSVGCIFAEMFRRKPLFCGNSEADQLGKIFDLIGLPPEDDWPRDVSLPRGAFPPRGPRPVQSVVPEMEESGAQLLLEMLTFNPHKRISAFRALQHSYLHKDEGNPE
Sequence (P30281 whole entry partner): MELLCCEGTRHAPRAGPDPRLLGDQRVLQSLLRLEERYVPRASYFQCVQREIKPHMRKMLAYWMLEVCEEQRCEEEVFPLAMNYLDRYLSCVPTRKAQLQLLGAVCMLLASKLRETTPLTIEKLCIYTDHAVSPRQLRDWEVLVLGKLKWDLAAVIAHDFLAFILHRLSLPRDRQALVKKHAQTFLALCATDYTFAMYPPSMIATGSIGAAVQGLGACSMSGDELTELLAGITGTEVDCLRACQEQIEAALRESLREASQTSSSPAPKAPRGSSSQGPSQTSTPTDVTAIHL
PROTOCOL: Human CDK4/cyclin D3 inhibitory activity (QS S Assist CDK4/Cyclin D3_FP Kit, IMAP fluorescence polarization)
Assay type: biochemical
RUN CONDITIONS: Human CDK4/cyclin D3 inhibitory activity; read-out: CDK4 Activity symbol
pIC50: −log10 of the molar value.
ASSAY ENDPOINT: pIC50

Worked examples, 5 compounds total:
COMPOUND	ASSAY ENDPOINT	RESULT
CC(C)Nc1nc(C(C)O)cc2cnc(Nc3ccc(N4CCOCC4)cn3)nc12 (centres unmarked) [Compound 72]	pIC50	> 8.00
COC(C)c1cc2cnc(Nc3ccc(CN4CCNCC4)cn3)nc2c(NC2(CO)CCOCC2)n1 (centres unmarked) [Compound 433]	pIC50	7.00 to 8.00
CO[C@H](C)c1cc2cnc(Nc3ccc(N4CCCCC(N)C4=O)cn3)nc2c(NC(C)C)n1 (some centres unmarked) [Compound 553]	pIC50	> 8.00
CO[C@H](C)c1cc2cnc(Nc3ccc(N4CC[C@@H](N)[C@@H](F)C4)cn3)nc2c(NC(C)C)n1 [Compound 466]	pIC50	> 8.00
CC(C)Nc1nc(C(F)F)cc2cnc(Nc3ccc(-c4cn[nH]c4)cn3)nc12 [Compound 209]	pIC50	7.00 to 8.00

Query: Which value of pIC50 has been reported for CC(C)Nc1nc([C@@H](C)O)cc2cnc(Nc3ccc(O[C@H]4CCCNC4)cn3)nc12 [Compound 565] in the records?
Result: > 8.00

Query: Try the compound CC(C)Nc1nc([C@@H](C)O)cc2cnc(Nc3ccc(N4CCNCC4=O)nn3)nc12 [Compound 613]
Result: 7.00 to 8.00

Query: Another compound: CCNc1nc(C(C)O)cc2cnc(Nc3ccc(N4CCNCC4)cn3)nc12 (centres unmarked) [Compound 23]
Result: > 8.00
